Data origin: patent EP1187837B1

- study-system: purified human immunodeficiency virus type-1 integrase (HIV-1 IN) (Human immunodeficiency virus type 1 group M subtype B, UniProt P12497)
- assay: Integrase assay: 3'-processing and strand transfer (3'-end joining), 32P-labeled oligonucleotide, gel/PhosphorImager, Mn2+ cofactor
- measurement-context: read-out: Integrase Assay IC50 (µM) 3'-Processing; purified IN 200 nM, 7.5 mM MnCl2, 30°C
metric: IC50

I have this compound here, CC(=O)OC1Sc2ccccc2C(=O)N2CCCC12 (stereo not shown) [Compound 21] , and I need its recorded IC50. > 1000 µM

* * *

- study-system: purified human immunodeficiency virus type-1 integrase (HIV-1 IN) (Human immunodeficiency virus type 1 group M subtype B, UniProt P12497)
- assay: Integrase assay: 3'-processing and strand transfer (3'-end joining), 32P-labeled oligonucleotide, gel/PhosphorImager, Mn2+ cofactor
- measurement-context: Integrase Assay IC50 (µM) 3'-Processing, purified IN 200 nM, 7.5 mM MnCl2, 30°C
metric: IC50

Please review the entries below; each comes with its answer.
[
  {
    "molecule": "CCOC(=O)C1Sc2ccccc2Cn2cccc21 (stereo not drawn)",
    "metric": "IC50",
    "result": "> 1000 µM"
  },
  {
    "molecule": "O=C1Sc2ccccc2C(=O)N2COCC12 (racemic)",
    "metric": "IC50",
    "result": "> 333 µM"
  },
  {
    "molecule": "CN(C)Cc1ccc2n1Cc1ccccc1SC2c1ccc(F)cc1 (stereo not drawn)",
    "metric": "IC50",
    "result": "> 1000 µM"
  }
]

Which value of IC50 has been reported for COC1Sc2ccccc2C(=O)N2CCCC12 (stereo not drawn) in the records? > 1000 µM

Also check O=C1Sc2ccc(Br)cc2C(=O)N2CSCC12 (racemic) 87 µM

Continue with CN1CCN([C@@H]2Sc3ccccc3C(=O)N3CCC[C@@H]23)CC1 (racemic) > 1000 µM

And for O=C1Sc2ccc(Br)cc2C(=O)N2CCSC12 (racemic) ? 58 µM

Please do the same for O=C1Sc2cc([N+](=O)[O-])ccc2C(=O)N2CSCC12 (racemic) as well. 90 µM

Lookup CN1CCN(Cc2ccc3n2Cc2ccccc2SC3c2ccccc2)CC1 (racemic) > 1000 µM

* * *

- Tested on: HIV-1 infected CEM cells
- assay: Anti-HIV assay in cultured CEM cells (NCI Antiviral Drug Screen, XTT formazan)
- Format: cell-based
- measurement-context: Human immunodeficiency virus 1, CCRF-CEM, 144 h, read-out: Cell data (µM) EC60: 50% effective concentration, HIV-1 infected CEM cells, 6 days, XTT
metric: EC50

[
  {
    "compound": "O=C1Sc2ccccc2C(=O)N2CSCC12 (racemic) [Compound 5]",
    "metric": "EC50",
    "result": "> 200 µM"
  }
]

Item under review: COc1cc2c(cc1OC)C(=O)N1CCCC1C(=O)S2 (stereo not drawn) [Compound 13] . Reported EC50? > 200 µM

Similarly, O=C1Sc2ccccc2C(=O)N2CCSC12 (stereo not drawn) [Compound 1] ? 107 µM

* * *

This section presents molecules with their documented CC50 at 6 days values.
- assay: Cytotoxicity control in uninfected CEM cells (XTT formazan)
- Type: cell-based
- measurement-context: human, uninfected T4 lymphocytes (CEM cell line), read-out: Cell data (µM) CC50: 50% cytotoxic concentration

[
  {
    "molecule": "O=C1Sc2ccc(Cl)cc2C(=O)N2CCSC12 (racemic)",
    "result": "> 50 µM"
  },
  {
    "molecule": "COc1ccc2c(c1)C(=O)N1CSCC1C(=O)S2 (racemic)",
    "result": "> 200 µM"
  },
  {
    "molecule": "CN1CCN([C@@H]2Sc3ccccc3C(=O)N3CCC[C@@H]23)CC1 (racemic)",
    "result": "> 125 µM"
  },
  {
    "molecule": "O=C1Sc2ccc(Cl)cc2C(=O)N2CSCC12 (racemic)",
    "result": "> 100 µM"
  },
  {
    "molecule": "Cc1ccc2c(c1)C(=O)N1CSCC1C(=O)S2 (racemic)",
    "result": "35 µM"
  },
  {
    "molecule": "O=C1Sc2cc([N+](=O)[O-])ccc2C(=O)N2CSCC12 (racemic)",
    "result": "> 50 µM"
  }
]

Field: next molecule
Quick one: CC50 at 6 days for O=C1Sc2ccc(Br)cc2C(=O)N2CSCC12 (racemic) ? > 200 µM

* * *

Quick reference for IC50 among some compounds
- study-system: purified human immunodeficiency virus type-1 integrase (HIV-1 IN) (Human immunodeficiency virus type 1 group M subtype B)
- assay: biochemical
Report only the number, with the unit µM understood.

See these solved cases before continuing.
[
  {
    "compound": "O=C1Sc2ccc(Br)cc2C(=O)N2CSCC12 (racemic)",
    "IC50, µM": 74
  },
  {
    "compound": "Cc1ccc2c(c1)C(=O)N1CSCC1C(=O)S2 (racemic)",
    "IC50, µM": 63
  },
  {
    "compound": "O=C1c2ccccc2SCC2CSC(c3ccccc3)N12 (stereo not drawn)",
    "IC50, µM": 288
  }
]

Query (compound): O=C1Sc2ccc(Br)cc2C(=O)N2CCSC12 (racemic) ; field requested: IC50 48

Another compound to look at: O=C1Sc2cc([N+](=O)[O-])ccc2C(=O)N2CSCC12 (racemic) 100

* * *

Recorded EC50 for the following compounds
- Tested on: HIV-1 infected CEM cells
- assay: Anti-HIV assay in cultured CEM cells (NCI Antiviral Drug Screen, XTT formazan)
- Format: cell-based
- measurement-context: Human immunodeficiency virus 1, CCRF-CEM, 144 h, read-out: Cell data (µM) EC60: 50% effective concentration, HIV-1 infected CEM cells, 6 days, XTT

[
  {
    "compound": "O=C1Sc2cc3ccccc3cc2C(=O)N2CCSC12 (racemic)",
    "study-system": "HIV-1 infected CEM cells",
    "EC50": "60 µM"
  },
  {
    "compound": "Cc1ccc2c(c1)C(=O)N1CC[S@@+]([O-])[C@@H]1C(=O)S2 (racemic)",
    "study-system": "HIV-1 infected CEM cells",
    "EC50": "> 100 µM"
  },
  {
    "compound": "COc1cc2c(cc1OC)C(=O)N1CSCC1C(=O)S2 (stereo not shown)",
    "study-system": "HIV-1 infected CEM cells",
    "EC50": "> 50 µM"
  }
]

What EC50 appears in the records for this compound with HIV-1 infected CEM cells? O=C1Sc2ccccc2C(=O)N2CCCCC12 (stereo not shown) > 200 µM

What about O=C1c2ccccc2SC(O)C2CCCN12 (stereo not shown) ? > 200 µM

// same read-out, input: `O=C1Sc2ccccc2Cn2cccc21` 146 µM

Query COC1Sc2ccccc2C(=O)N2CCCC12 (stereo not shown) next > 200 µM

Please do the same for CC(=O)OC1Sc2ccccc2C(=O)N2CCCC12 (stereo not shown) as well. > 200 µM

Repeat with COc1cc2c(cc1OC)C(=O)N1CCCC1CS2 (stereo not shown) > 200 µM

Now consider O=C1Sc2cc3ccccc3cc2C(=O)N2CSCC12 (racemic) and answer again. 279 to 286 µM

* * *

- study-system: purified human immunodeficiency virus type-1 integrase (HIV-1 IN) (Human immunodeficiency virus type 1 group M subtype B)
- assay: Integrase assay: 3'-processing and strand transfer (3'-end joining), 32P-labeled oligonucleotide, gel/PhosphorImager, Mn2+ cofactor
- measurement-context: read-out: Integrase Assay IC50 (µM) 3'-Processing; purified IN 200 nM, 7.5 mM MnCl2, 30°C
Reported IC50 is given for each of the following compounds.

[
  {
    "compound": "O=C1c2ccccc2SC(O)C2CCCN12 (stereo not drawn)",
    "IC50": "> 1000 µM"
  }
]

Need IC50 of COc1cc2c(cc1OC)C(=O)N1CCCC1C(=O)S2 (stereo not drawn) , thanks. > 1000 µM

Please give the result for COc1cc2c(cc1OC)C(=O)N1CCCC1CS2 (stereo not drawn) too. > 1000 µM

* * *

- study-system: purified human immunodeficiency virus type-1 integrase (HIV-1 IN) (Human immunodeficiency virus type 1 group M subtype B, UniProt P12497)
- assay: Integrase assay: 3'-processing and strand transfer (3'-end joining), 32P-labeled oligonucleotide, gel/PhosphorImager, Mn2+ cofactor;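 further: enzyme at 200 nM preincubated with inhibitor 30 min at 30°C, then 20 nM labeled 21-mer DNA for 1 h, inhibition relative to enzyme without drug, background from DNA alone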
- measurement-context: Integrase Assay IC50 (µM) 3'-Processing, purified IN 200 nM, 7.5 mM MnCl2, 30°C
metric: IC50

[
  {
    "compound": "Cc1ccc2c(c1)C(=O)N1CSCC1C(=O)S2 (racemic) [Compound 8]",
    "IC50": "52 µM"
  },
  {
    "compound": "O=C1c2ccccc2SCC2CSC(c3ccccc3)N12 (stereo not drawn) [Compound 23]",
    "IC50": "111 µM"
  }
]

Kindly review the next compound as well.
I am curious: what IC50 value has been reported for O=C1c2ccccc2SC(O)(c2ccccc2)C2CCCN12 (racemic) [Compound 26] ? > 1000 µM
